meta.source: ChEMBL document CHEMBL1156035

assay-name: Apparent passive permeability from abluminal to luminal side of BBMEC at 10 uM up to 1.5 hrs
Type: ADME, Bos taurus
test-parameters: cattle
value-kind: Papp at 1.5 h, 10 µM (×10⁻⁶ cm/s)
# value in ×10⁻⁶ cm/s; strip the unit string

IN: Please give the measured Papp at 1.5 h, 10 µM for this compound: OC[C@]12CO[C@H](c3ccc(F)cc3)N1[C@H](c1ccc(F)cc1)OC2
OUT: 244

====

Quick list: pEC50 per entry.
assay-name: Neuroprotective effect against beta-amyloid (25-35)-induced cell death in Sprague-Dawley rat cortical neuron treated 2 hrs before beta-amyloid (25-35) challenge measured after 48 hrs by propidium iodide staining-based fluorescence microscopy
Type: functional
test-parameters: Cortical neurone
Note on units: pEC50 is unitless, being -log10 of a concentration expressed in mol/L.

[
  {
    "molecule": "OCC12CO[C@H](c3ccc(F)cc3)N1[C@@H](c1ccc(F)cc1)OC2 (relative stereo)",
    "pEC50": 7.30
  }
]

IN: Please give the measured pEC50 for this molecule: OCC1(CO)COC(c2ccc(F)cc2)N1 (stereo not drawn)
OUT: 7.40

IN: Please give the measured pEC50 for this molecule: OC[C@]12CO[C@H](c3ccc(F)cc3)N1[C@H](c1ccc(F)cc1)OC2
OUT: 8.30

====

assay-name: Apparent passive permeability from luminal to abluminal side of BBMEC at 10 uM up to 1.5 hrs
Type: ADME, Bos taurus
test-parameters: cattle
value-kind: Papp at 1.5 h, 10 µM (×10⁻⁶ cm/s)
# value in ×10⁻⁶ cm/s; strip the unit string

IN: Please give the measured Papp at 1.5 h, 10 µM for this molecule: OC[C@]12CO[C@H](c3ccc(F)cc3)N1[C@H](c1ccc(F)cc1)OC2
OUT: 286
